system_under_test: Protein deacetylase HDAC6 (Homo sapiens)
Sequence (Q9UBN7 whole entry): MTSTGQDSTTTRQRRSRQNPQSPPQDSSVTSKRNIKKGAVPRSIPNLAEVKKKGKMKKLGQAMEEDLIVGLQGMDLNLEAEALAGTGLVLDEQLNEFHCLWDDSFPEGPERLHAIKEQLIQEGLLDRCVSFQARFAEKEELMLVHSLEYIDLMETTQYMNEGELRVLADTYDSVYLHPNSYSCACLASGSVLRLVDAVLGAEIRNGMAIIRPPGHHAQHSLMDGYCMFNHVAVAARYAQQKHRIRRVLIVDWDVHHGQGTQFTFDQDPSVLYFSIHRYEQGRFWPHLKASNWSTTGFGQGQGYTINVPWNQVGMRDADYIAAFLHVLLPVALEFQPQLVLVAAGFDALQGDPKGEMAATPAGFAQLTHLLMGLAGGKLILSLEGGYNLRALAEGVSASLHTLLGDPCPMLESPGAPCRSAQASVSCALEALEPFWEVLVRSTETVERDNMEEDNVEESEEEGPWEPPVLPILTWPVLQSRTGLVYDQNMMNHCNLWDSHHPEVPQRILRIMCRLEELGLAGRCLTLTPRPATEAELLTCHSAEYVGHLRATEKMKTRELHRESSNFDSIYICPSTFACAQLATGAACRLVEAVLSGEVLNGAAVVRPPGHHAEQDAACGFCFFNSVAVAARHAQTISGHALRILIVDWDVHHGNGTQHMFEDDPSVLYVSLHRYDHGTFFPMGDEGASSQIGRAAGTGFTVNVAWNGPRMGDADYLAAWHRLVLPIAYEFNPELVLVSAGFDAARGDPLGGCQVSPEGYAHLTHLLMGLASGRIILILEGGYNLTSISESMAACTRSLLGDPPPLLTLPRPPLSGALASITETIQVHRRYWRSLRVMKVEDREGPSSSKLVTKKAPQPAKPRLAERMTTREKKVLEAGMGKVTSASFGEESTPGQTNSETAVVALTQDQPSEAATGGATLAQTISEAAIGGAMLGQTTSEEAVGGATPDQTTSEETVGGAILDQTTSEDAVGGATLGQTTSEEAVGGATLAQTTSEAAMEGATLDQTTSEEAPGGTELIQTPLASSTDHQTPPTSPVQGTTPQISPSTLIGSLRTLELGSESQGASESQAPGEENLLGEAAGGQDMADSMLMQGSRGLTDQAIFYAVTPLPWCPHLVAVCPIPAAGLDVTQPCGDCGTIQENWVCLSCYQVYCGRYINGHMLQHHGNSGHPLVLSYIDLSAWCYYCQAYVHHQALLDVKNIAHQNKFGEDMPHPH
test_description: Inhibition of HDAC6 (unknown origin) using RHKK(Ac)AMC as substrate
pIC50: −log10 of the molar value.
quantity_kind: pIC50

                        molecule  quantity_kind  recorded_number
0  O=C(CCCCCCCCCCCc1cccc(O)c1)NO          pIC50             6.00

* * *

Below, each entry is listed alongside its reported CC50 at 96 h.
test_description: Cytotoxicity against mouse L929 cells incubated for 96 hrs by Alamar Blue assay
Assay type: toxicity, cell-based
assay_setup: read-out: LC50
quantity_kind: CC50 at 96 h (µM)

>>> print(df.to_string())
                                   molecule  bound_sign  recorded_number
0  O=C(CCCCCCCCCCCc1cccc(OC(=O)c2ccccc2)c1)NO           =               79
1            COc1cccc(CCCCCCCCCCCC(=O)NO)c1           =              157
2  Nc1ccccc1NC(=O)CCCCCCCCCCCc1cccc(OCc2ccccc2)c1           >              200
3    O=C(CCCCCCCCCCCc1cccc(OCc2ccccc2)c1)NO           =               90
4     Nc1ccccc1NC(=O)CCCCCCCCCCCc1cccc(O)c1           =              145
5    COc1cccc(CCCCCCCCCCCC(=O)Nc2ccccc2N)c1           >              200
6             O=C(CCCCCCCCCCCc1cccc(O)c1)NO           =              151
7       O=C(Cn1ccnc1[N+](=O)[O-])NCc1ccccc1           >              200
8  Nc1ccccc1NC(=O)CCCCCCCCCCCc1cccc(OC(=O)c2ccccc2)c1           >              200
